molecular target: UniProt P12527; assay: Compound was evaluated for the inhibition of 5-Lipoxygenase (5-LO) ex vivo; assay type: functional
Sequence (P12527 whole entry): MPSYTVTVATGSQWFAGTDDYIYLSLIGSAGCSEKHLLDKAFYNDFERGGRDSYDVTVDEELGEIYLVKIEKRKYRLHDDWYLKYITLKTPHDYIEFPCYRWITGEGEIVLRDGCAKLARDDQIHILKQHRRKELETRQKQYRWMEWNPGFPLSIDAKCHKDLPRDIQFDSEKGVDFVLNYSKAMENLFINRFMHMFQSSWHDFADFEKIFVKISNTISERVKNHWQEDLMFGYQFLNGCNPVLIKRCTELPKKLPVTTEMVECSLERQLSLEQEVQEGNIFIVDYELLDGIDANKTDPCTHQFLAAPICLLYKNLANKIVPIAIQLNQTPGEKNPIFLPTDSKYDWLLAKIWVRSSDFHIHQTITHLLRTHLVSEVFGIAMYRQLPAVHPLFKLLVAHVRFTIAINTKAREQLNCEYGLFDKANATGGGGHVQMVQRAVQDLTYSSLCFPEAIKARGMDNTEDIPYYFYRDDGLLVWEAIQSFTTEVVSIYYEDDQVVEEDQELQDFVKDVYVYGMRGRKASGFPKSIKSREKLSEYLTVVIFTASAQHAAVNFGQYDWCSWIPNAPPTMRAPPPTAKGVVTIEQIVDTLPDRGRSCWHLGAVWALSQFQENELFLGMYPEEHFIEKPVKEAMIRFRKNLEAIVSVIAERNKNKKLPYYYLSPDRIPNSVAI
The entries below are paired with their reported ED50.
measuredQuantity: ED50 (mg/kg)

{"molecule": "COCC1CN(c2ccccc2)NC1=O (stereo not given)", "testTarget": "UniProt P12527", "operatorSymbol": "=", "valueMeasured": 29}
{"molecule": "COCCC1CN(c2ccccc2)NC1=O (stereo in doubt; 1f)", "testTarget": "UniProt P12527", "operatorSymbol": "=", "valueMeasured": 43}
{"molecule": "CCSC1CN(c2ccccc2)NC1=O (stereo not given)", "testTarget": "UniProt P12527", "operatorSymbol": "=", "valueMeasured": 95}
{"molecule": "NC1=NN(c2cccc(C(F)(F)F)c2)CC1 [BW-755C]", "testTarget": "UniProt P12527", "operatorSymbol": ">", "valueMeasured": 300}
{"molecule": "O=C1CCN(c2ccccc2)N1 [PHENIDONE]", "testTarget": "UniProt P12527", "operatorSymbol": "=", "valueMeasured": 16}

###

assay: Partition coefficient (logP); assay type: physicochemical; details: octanol/water
The entries below are paired with their reported logP.
measuredQuantity: logP

{"compound": "O=C1NN(c2ccccc2)CC1Sc1ccccn1 (stereo not given)", "valueMeasured": 2.16}
{"compound": "CCOCC1CN(c2ccccc2)NC1=O (stereo not given)", "valueMeasured": 1.42}
{"compound": "COCCC1CN(c2ccc(Cl)c(Cl)c2)NC1=O (stereo not given)", "valueMeasured": 1.96}
{"compound": "COCCC1CCN(c2ccccc2)NC1=O (stereo not given)", "valueMeasured": 1.09}
{"compound": "COCCOCC1CN(c2ccccc2)NC1=O (stereo not given)", "valueMeasured": 0.955}
